target: GTPase KRas [G12D,C118A] (Homo sapiens, UniProt P01116, C118A/G12D); assay: Coupled Nucleotide Exchange Assay
Sequence (P01116 whole entry G12D/C118A, looked up): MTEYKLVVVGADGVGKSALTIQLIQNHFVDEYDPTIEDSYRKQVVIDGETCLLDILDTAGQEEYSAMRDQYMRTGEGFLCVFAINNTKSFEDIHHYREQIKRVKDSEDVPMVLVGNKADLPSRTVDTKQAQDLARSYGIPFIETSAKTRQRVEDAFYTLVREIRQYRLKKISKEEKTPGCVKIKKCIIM
pIC50 values, listed per item
Answer as the number alone; pIC50 is minus log10 of concentration in mol/L.

input: Give pIC50 (GTPase KRas [G12D,C118A] (Homo sapiens, UniProt P01116, C118A/G12D)) of the following molecule: O[C@@H]1CCOCCc2c(Cl)cc3[nH]ncc3c2-c2ncc3c(nc(OC[C@@]45CCCN4C[C@H](F)C5)nc3c2F)N2CCC[C@@H]1C2
output: 8.22

input: Missing value: pIC50, GTPase KRas [G12D,C118A] (Homo sapiens, UniProt P01116, C118A/G12D), entry Fc1c2ncc3c(nc(OC[C@@]45CCCN4C[C@H](F)C5)nc13)N1CCC[C@H](C1)c1coc(n1)CCCc1c(Cl)cc3[nH]ncc3c1-2 . Fill in?
output: 9.00

input: Item: Cc1cc2[nH]ncc2c2c1CCCOC(=O)N1CC[C@@H]3CCN(C[C@@H]31)c1nc(OC[C@@]34CCCN3C[C@H](F)C4)nc3c(F)c-2ncc13 (mixture of isomers) Test system: GTPase KRas [G12D,C118A] (Homo sapiens, UniProt P01116, C118A/G12D) Read-out: pIC50 Value: ?
output: 7.89

---

molecular target: GTPase KRas [G12D] (Homo sapiens, UniProt P01116, G12D); test: TR-FRET Assay
Sequence (P01116 whole entry G12D): as the sequence (P01116 whole entry G12D/C118A, looked up) above, with A118C counted along it
Experimental readout: IC50 (nM)
Write the value in nM as a bare number.

Worked examples, 4 compounds total:
input: Form field: IC50 recorded for Cc1cc2[nH]ncc2c2c1CCCOC(=O)N1CC[C@@H]3CCN(C[C@@H]31)c1nc(OC[C@@]34CCCN3C[C@H](F)C4)nc3c(F)c-2ncc13 (mixture of isomers) with GTPase KRas [G12D] (Homo sapiens, UniProt P01116, G12D) (enter value)
output: 20

input: Enter reported IC50 observed with GTPase KRas [G12D] (Homo sapiens, UniProt P01116, G12D) for Fc1c2ncc3c(nc(OC[C@@]45CCCN4C[C@H](F)C5)nc13)N1CCOC[C@H](C1)c1noc(n1)CCCc1c(Cl)cc3[nH]ncc3c1-2
output: 5

input: Request: IC50, test system GTPase KRas [G12D] (Homo sapiens, UniProt P01116, G12D), entry Cc1cc2[nH]ncc2c2c1CCCOC(=O)O[C@@H]1COCCN(C1)c1nc(OC[C@@]34CCCN3C[C@H](F)C4)nc3c(F)c-2c(F)cc13
output: 3

input: # query: IC50 | item O[C@@H]1CCOCCc2c(Cl)cc3[nH]ncc3c2-c2ncc3c(nc(OC[C@@]45CCCN4C[C@H](F)C5)nc3c2F)N2CCC[C@@H]1C2 | system: GTPase KRas [G12D] (Homo sapiens, UniProt P01116, G12D)
output: 10

Note: attention shifts to another entry.
input: Provide value of IC50 for this record tested with GTPase KRas [G12D] (Homo sapiens, UniProt P01116, G12D): Cc1cc2[nH]ncc2c2c1CCCOC(=O)O[C@@H]1COCCN(C1)c1nc(OC[C@@]34CCCN3C[C@H](F)C4)nc3c(F)c-2ccc13
output: 4

---

Biological target: GTPase KRas [G12D] (Homo sapiens, UniProt P01116, G12D)
Assay: TR-FRET Assay
Protocol: Compounds of interest were prepared in a dose-response titration in DMSO, and 80 nL were added via Labcyte Echo to each well of a 384-well plate (Perkin Elmer 6008280). […] Plates were read using PerkinElmer EnVision (ex: 320 nm, em1: 665 nm, em2: 615 nm) and em1/em2 data was used to generate curve fits using a 4-parameter logistic model to calculate IC50 values.
As shown below, each of these compounds has a reported IC50 value.
Number only, in nM; omit the unit.

Solved cases (2 shown):
input: Returns the measured IC50 for the input compound. Input: Fc1c2ncc3c(nc(OC[C@@]45CCCN4C[C@H](F)C5)nc13)N1CCC[C@@H](CSCCCCc3c(Cl)cc4[nH]ncc4c3-2)C1
output: 3

input: Could you tell me which IC50 is on file for Fc1c2ncc3c(nc(OC[C@@]45CCCN4C[C@H](F)C5)nc13)N1CCC[C@H](C1)c1coc(n1)CCCc1c(Cl)cc3[nH]ncc3c1-2 ?
output: 2

Pending compound:
input: So what does the record say about IC50 for CN(C)CC1(COc2nc3c4cnc(c(F)c4n2)-c2c(c(Cl)cc4[nH]ncc24)CCCOC(=O)O[C@@H]2COCCN3C2)CC1 ?
output: 4
